This collection of values is drawn from BindingDB's records for doi:10.7270/Q2R78CMH.

- study.target: UniProt Q9HD36
- Sequence (Q9HD36 whole entry): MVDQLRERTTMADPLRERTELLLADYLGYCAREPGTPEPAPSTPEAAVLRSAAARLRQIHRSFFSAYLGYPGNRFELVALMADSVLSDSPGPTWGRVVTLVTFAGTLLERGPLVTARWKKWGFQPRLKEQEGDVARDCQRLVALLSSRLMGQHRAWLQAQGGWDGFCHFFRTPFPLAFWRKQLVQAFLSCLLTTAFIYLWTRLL
- assay.summary: Biochemical fluorescence polarization EC50 measurement of human Bcl-2-like protein 10 inhibition, TR3-derived (AID 1243)
# label = label 1 if EC50 < 6 µM else label 0

INSERT INTO measurements (molecule, study_target, discrete_label) VALUES
  ('C=c1c(C#N)c2[nH]c(N)c(C#N)c(C)c-2c1=Cc1ccc(-c2ccc(C(=O)O)c(Cl)c2)o1', 'UniProt Q9HD36', 'label 1'),
  ('COc1ccccc1NC(=O)C1=C(C)N=C(SCC(=O)c2ccc(Br)cc2)C(C#N)C1c1ccco1 (stereo unspecified)', 'UniProt Q9HD36', 'label 0'),
  ('O=C1c2ccccc2C(O)C12N=Nc1n[nH]c(=S)n1N2 (stereo unspecified)', 'UniProt Q9HD36', 'label 0'),
  ('Clc1ccc(C2CC(c3ccccc3)=Nc3ncnn32)cc1 (stereo unspecified)', 'UniProt Q9HD36', 'label 0'),
  ('O=C1C=CC(=O)C(C(C=NCc2ccccc2)[N+](=O)[O-])=C1 (stereo unspecified)', 'UniProt Q9HD36', 'label 1'),
  ('O=C(O)c1cccc(-c2ccc(CN=Nc3ccc([N+](=O)[O-])cn3)o2)c1', 'UniProt Q9HD36', 'label 0');
